These data points were gathered from ChEMBL document CHEMBL3882724.

# TARGET ENTITY: UniProtKB P08686
# Sequence (P08686 whole entry): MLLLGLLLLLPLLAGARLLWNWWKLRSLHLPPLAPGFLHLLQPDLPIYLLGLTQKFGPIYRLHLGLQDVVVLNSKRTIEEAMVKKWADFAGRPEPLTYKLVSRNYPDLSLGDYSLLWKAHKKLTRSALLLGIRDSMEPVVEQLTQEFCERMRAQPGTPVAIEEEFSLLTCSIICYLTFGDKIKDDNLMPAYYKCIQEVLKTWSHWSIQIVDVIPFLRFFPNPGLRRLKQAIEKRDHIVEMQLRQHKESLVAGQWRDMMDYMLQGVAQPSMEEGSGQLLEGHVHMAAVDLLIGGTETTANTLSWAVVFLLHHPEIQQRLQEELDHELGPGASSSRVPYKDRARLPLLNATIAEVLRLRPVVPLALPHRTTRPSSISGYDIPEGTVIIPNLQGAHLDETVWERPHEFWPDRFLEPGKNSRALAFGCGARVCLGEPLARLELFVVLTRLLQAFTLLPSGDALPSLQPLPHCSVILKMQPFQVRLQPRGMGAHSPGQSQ
# PROTOCOL TEXT: Inhibition of human CYP21 transfected in HEK293 cells assessed as decrease in conversion of progesterone to 11-deoxycorticosterone preincubated for 5 hrs followed by progesterone addition measured after 20 hrs by ELISA
# Format: cell-based
# Design: concentration or dose not given beside the values
# STATED CONDITIONS: HEK293 cells transfected with human CYP21, probe progesterone
# maps each entry to its inhibition at 20 h

Look over these answered cases.
{"columns": ["MOLECULE", "inhibition at 20 h"],
 "data": [
  ["C[C@]12CC[C@H]3[C@@H](CCC45CC4NC(=O)CC[C@]35C)[C@@H]1CC=C2c1cccnc1 (some centres not stated)", "< 10%"],
  ["C[C@]12CC[C@H](O)CC1=CC[C@@H]1[C@@H]2CC[C@]2(C)C(n3cncc3C#N)=CC[C@@H]12", "10 to 50%"],
  ["C[C@]12CC[C@H]3[C@@H](CC(c4ccccc4)C4=CC(=O)CC[C@@]43C)C1=CC=C2c1cccnc1 (some centres not stated)", "10 to 50%"],
  ["C[C@@]1(O)CC[C@@]2(C)C(CC[C@@H]3[C@@H]2CC[C@]2(C)C(c4cncc(Cl)c4)=CC[C@@H]32)C1 (some centres not stated)", "10 to 50%"],
  ["C[C@]12CC[C@H]3[C@@H](CC(F)C4(O)C[C@@H](O)CC[C@]34C)[C@@H]1CC=C2c1cncc(F)c1 (some centres not stated)", "≥ 50%"]
]}

Input line: Sample C[C@]12CC[C@H](O)CC1=CC[C@@H]1[C@@H]2CC[C@]2(C)C(c3cncc(N)c3)=CC[C@@H]12 — what was its inhibition at 20 h?
Output line: ≥ 50%

Input line: // inhibition at 20 h lookup, key: COC(=O)c1cncn1C1=CC[C@H]2[C@@H]3CC=C4C[C@@H](O)CC[C@]4(C)[C@H]3CC[C@]12C
Output line: 10 to 50%

* * *

# TARGET ENTITY: CYP21 (steroid 21-hydroxylase) (Homo sapiens)
# Sequence (P08686 whole entry): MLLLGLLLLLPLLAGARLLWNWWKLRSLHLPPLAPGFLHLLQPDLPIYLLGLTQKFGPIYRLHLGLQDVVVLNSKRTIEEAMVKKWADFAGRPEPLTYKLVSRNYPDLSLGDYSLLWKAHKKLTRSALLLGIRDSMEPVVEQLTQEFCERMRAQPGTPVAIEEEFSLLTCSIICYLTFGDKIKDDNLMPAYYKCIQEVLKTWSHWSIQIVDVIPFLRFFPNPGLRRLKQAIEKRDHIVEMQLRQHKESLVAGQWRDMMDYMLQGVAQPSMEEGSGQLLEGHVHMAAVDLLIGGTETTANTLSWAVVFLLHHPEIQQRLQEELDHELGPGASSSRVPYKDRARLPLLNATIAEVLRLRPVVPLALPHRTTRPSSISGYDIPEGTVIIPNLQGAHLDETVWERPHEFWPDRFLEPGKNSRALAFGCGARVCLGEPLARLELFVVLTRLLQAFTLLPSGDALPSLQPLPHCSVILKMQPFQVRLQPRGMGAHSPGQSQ
# PROTOCOL TEXT: Inhibition of human CYP21 transfected in HEK293 cells assessed as decrease in conversion of progesterone to 11-deoxycorticosterone preincubated for 5 hrs followed by progesterone addition measured after 20 hrs by ELISA
# Assay type: cell-based
# Design: concentration or dose not given beside the values
# STATED CONDITIONS: HEK293 cells transfected with human CYP21, probe progesterone
Below is a list of entries, each paired with its recorded inhibition at 20 h value.

{"columns": ["COMPOUND", "TARGET ENTITY", "EXPERIMENTAL RESULT"],
 "data": [
  ["C[C@]12CCC(=O)C=C1CC[C@@H]1[C@@H]2CC[C@]2(C)C(c3cncc(C(F)F)c3)=CC[C@@H]12", "CYP21 (steroid 21-hydroxylase) (Homo sapiens)", "10 to 50%"],
  ["COC1CC2[C@@H]3CC=C(n4ccnc4)[C@@]3(C)CC[C@@H]2[C@@]2(C)CCC3CC312 (single isomer, unassigned)", "CYP21 (steroid 21-hydroxylase) (Homo sapiens)", "10 to 50%"],
  ["C[C@]12CC[C@H](O)CC1=CC[C@@H]1[C@@H]2CC[C@]2(C)C(c3cncc(Cl)c3)=CC[C@@H]12", "CYP21 (steroid 21-hydroxylase) (Homo sapiens)", "≥ 50%"],
  ["CN(C)CC(=O)O[C@H]1CC[C@@]2(C)C(=CC[C@H]3C4=CC=C(c5cccnc5)[C@@]4(C)CC[C@@H]32)C1", "CYP21 (steroid 21-hydroxylase) (Homo sapiens)", "≥ 50%"],
  ["C[C@]12CCC(=O)C=C1C(n1ccnn1)C[C@@H]1[C@@H]2CC[C@]2(C)C(c3cccnc3)=CC[C@@H]12 (some centres not stated)", "CYP21 (steroid 21-hydroxylase) (Homo sapiens)", "10 to 50%"]
]}

Input line: I have this compound here, CC(C)C(=O)N[C@H]1CC[C@@]2(C)C(CC[C@@H]3[C@@H]2CC[C@]2(C)C(c4cccnc4)=CC[C@@H]32)C1 (some centres not stated) , and I need its recorded inhibition at 20 h.
Output line: ≥ 50%

Input line: Please give the measured inhibition at 20 h for this compound: C[C@]12CCC(N)CC1CC[C@@H]1[C@@H]2CC[C@]2(C)C(c3cccnc3)=CC[C@@H]12 (single isomer, unassigned)
Output line: 10 to 50%

* * *

# TARGET ENTITY: UniProt P08686
# PROTOCOL TEXT: Inhibition of human CYP21 transfected in HEK293 cells assessed as decrease in conversion of progesterone to 11-deoxycorticosterone preincubated for 5 hrs followed by progesterone addition measured after 20 hrs by ELISA
# Assay type: cell-based
# Design: concentration or dose not given beside the values
# STATED CONDITIONS: HEK293 cells transfected with human CYP21, probe progesterone
# key: entry, value: inhibition at 20 h

Consider the following illustrative entries.
{"columns": ["COMPOUND", "TARGET ENTITY", "inhibition at 20 h"],
 "data": [
  ["CC1(C)C2=CC[C@H]3C4=CC=C(c5cccnc5)[C@@]4(C)CC[C@@H]3[C@@]2(C)CCC1O (stereo not given in full)", "UniProt P08686", "10 to 50%"],
  ["C[C@]12CC[C@@H](N=[N+]=[N-])CC1CC[C@@H]1[C@@H]2CC[C@]2(C)C(c3cccnc3)=CC[C@@H]12 (stereo not given in full)", "UniProt P08686", "10 to 50%"],
  ["CC(C)(C)C(=O)N[C@@H]1CC[C@@]2(C)C(CC[C@@H]3[C@@H]2CC[C@]2(C)C(c4cccnc4)=CC[C@@H]32)C1 (stereo not given in full)", "UniProt P08686", "10 to 50%"],
  ["Cc1ccncc1C1=CC[C@H]2[C@@H]3CC[C@H]4CNC(=O)CC[C@]4(C)[C@H]3CC[C@]12C", "UniProt P08686", "10 to 50%"],
  ["COc1cncc(C2=CC[C@H]3[C@@H]4CC=C5N(C)C(=O)C[C@]5(C)[C@H]4CC[C@]23C)c1", "UniProt P08686", "≥ 50%"]
]}

Input line: // lookup inhibition at 20 h for CCNC(=O)N[C@@H]1CC[C@@]2(C)C(=CC[C@@H]3[C@@H]2CC[C@]2(C)C(c4cccnc4)=CC[C@@H]32)C1
Output line: ≥ 50%

Input line: For the compound shown here, CN1C(=O)C[C@@]2(C)C1=CC[C@@H]1[C@@H]2CC[C@]2(C)C(n3ccnc3)=CC[C@@H]12 , give the reported inhibition at 20 h.
Output line: 10 to 50%

Input line: I'd like to know its inhibition at 20 h. The compound in question is C[C@]12CC[C@@H](NC(=O)C3CC3)CC1=CC[C@@H]1[C@@H]2CC[C@]2(C)C(n3ccnc3)=CC[C@@H]12
Output line: ≥ 50%

Input line: Recorded inhibition at 20 h of CC1=C2CC[C@H]3C4=CC=C(c5cccnc5)[C@@]4(C)CC[C@@H]3[C@@]2(C)CCC1=O , please.
Output line: ≥ 50%

Input line: Name the reported inhibition at 20 h value associated with the compound CCc1ccncc1C1=CC=C2[C@@H]3CCC4CNC(=O)CC[C@]4(C)[C@H]3CC[C@]12C (stereo not given in full)
Output line: 10 to 50%

Input line: inhibition at 20 h lookup needed for CC(=O)N1CCC[C@@]2(C)[C@@H](CC[C@@H]3[C@@H]2CC[C@]2(C)C(n4ccnc4)=CC[C@@H]32)C1 , thanks.
Output line: 10 to 50%

Input line: Please give the measured inhibition at 20 h for this compound: Cc1cnc(F)c(C2=CC[C@H]3[C@@H]4CC=C5C[C@@H](O)CC[C@]5(C)[C@H]4CC[C@]23C)c1
Output line: 10 to 50%

Input line: Any idea what its inhibition at 20 h is? The compound is C[C@]12CC[C@H]3[C@@H](CC(O)C45CC4CC[C@]35C)C1=CC=C2c1cccnc1 (stereo not given in full)
Output line: ≥ 50%

Input line: Which inhibition at 20 h is reported for this compound? CC1(C)C2=CC[C@@H]3[C@H](CC[C@]4(C)C(c5cccnc5)=CC[C@@H]34)[C@@]2(C)CCC1O (stereo not given in full)
Output line: < 10%

Input line: Look up inhibition at 20 h for this compound: CCc1cncc(C2=CC[C@H]3[C@@H]4CC[C@H]5C[C@@H](OC)CC[C@]5(C)[C@H]4CC[C@]23C)c1
Output line: 10 to 50%
